# test.system: Broad substrate specificity ATP-binding cassette transporter ABCG2 (Homo sapiens, UniProt Q9UNQ0)
# Sequence (Q9UNQ0 whole entry): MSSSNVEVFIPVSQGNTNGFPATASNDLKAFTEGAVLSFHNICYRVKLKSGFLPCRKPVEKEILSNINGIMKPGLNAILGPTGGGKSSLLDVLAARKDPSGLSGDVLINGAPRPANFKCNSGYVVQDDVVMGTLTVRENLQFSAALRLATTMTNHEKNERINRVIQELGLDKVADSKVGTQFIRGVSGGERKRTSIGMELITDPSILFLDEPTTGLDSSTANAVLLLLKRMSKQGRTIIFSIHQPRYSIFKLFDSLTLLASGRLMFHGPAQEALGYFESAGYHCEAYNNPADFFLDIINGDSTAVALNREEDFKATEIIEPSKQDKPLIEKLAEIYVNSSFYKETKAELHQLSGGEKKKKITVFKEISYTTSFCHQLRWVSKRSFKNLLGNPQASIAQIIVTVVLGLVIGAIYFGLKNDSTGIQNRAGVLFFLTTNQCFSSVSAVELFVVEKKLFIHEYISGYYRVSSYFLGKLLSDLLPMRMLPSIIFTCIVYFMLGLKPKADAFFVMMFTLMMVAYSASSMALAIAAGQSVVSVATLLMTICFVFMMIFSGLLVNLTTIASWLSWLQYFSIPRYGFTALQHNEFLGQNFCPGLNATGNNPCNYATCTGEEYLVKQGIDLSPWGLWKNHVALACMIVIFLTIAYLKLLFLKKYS
# assay.explanation: Inhibition of ABCG2 (unknown origin) expressed in human HEK293 cells mediated mitoxantrone efflux assessed as intracellular mitoxantrone level and measured after 30 mins by FACSflow cytometry analysis
# Assay type: cell-based
readout.label: pIC50
Please note pIC50 is a logarithmic value: minus log10 of concentration in mol/L. Answer with that number alone.

Name the recorded pIC50 of the item `c1ccc2c(c1)OCO2` in your answer. 6.03

---

# test.system: UniProt:Q9UNQ0
# assay.explanation: Inhibition of ABCG2 (unknown origin) expressed in human K562 cells membrane vesicles assessed inhibition of BCRP- mediated transport of 3[H]-E1S for 10 mins using 3[H]-estrone 3-sulfate as substrate by liquid scintillation counter analysis
# Format: cell membranes, Membrane vesicle
readout.label: pIC50
Please note pIC50 is a logarithmic value: minus log10 of concentration in mol/L. Answer with that number alone.

Name the recorded pIC50 of the item C#Cc1cccc(Nc2ncnc3cc(OCCOC)c(OCCOC)cc23)c1 [ERLOTINIB] in your answer. 6.89

---

# test.system: Broad substrate specificity ATP-binding cassette transporter ABCG2 (Homo sapiens)
# Sequence (Q9UNQ0 whole entry): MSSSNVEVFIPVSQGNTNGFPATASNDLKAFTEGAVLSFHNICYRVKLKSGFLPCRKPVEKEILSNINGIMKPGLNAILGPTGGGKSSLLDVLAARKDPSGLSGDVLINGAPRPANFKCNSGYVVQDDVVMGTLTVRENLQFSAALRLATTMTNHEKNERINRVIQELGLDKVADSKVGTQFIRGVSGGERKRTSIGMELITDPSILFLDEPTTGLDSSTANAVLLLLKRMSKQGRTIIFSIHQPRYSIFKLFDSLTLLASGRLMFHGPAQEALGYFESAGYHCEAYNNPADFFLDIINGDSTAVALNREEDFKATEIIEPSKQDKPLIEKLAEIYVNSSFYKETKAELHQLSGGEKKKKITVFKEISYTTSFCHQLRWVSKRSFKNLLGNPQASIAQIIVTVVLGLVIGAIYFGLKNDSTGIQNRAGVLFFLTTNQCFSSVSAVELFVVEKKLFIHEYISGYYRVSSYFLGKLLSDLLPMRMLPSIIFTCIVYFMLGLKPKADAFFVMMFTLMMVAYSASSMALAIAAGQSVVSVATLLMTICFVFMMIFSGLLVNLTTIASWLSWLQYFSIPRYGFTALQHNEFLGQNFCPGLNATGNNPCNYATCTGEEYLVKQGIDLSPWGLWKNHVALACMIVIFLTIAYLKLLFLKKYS
# assay.explanation: Inhibition of human ABCG2 expressed in dog MDCK-II-BCRP cells mediated pheophorbide A efflux and measured after 60 mins using pheophorbide A as fluorescent substrate by flow cytometry
# Type: cell-based
readout.label: pIC50
Please note pIC50 is a logarithmic value: minus log10 of concentration in mol/L. Answer with that number alone.

1) CCOc1nc2cccc(C(=O)OC(C)OC(=O)OC3CCCCC3)c2n1Cc1ccc(-c2ccccc2-c2nnn[nH]2)cc1 (configuration not stated) [CANDESARTAN CILEXETIL]: 5.30

Moving on to the next molecule.
Determine reported pIC50 for `CCCc1nc2c(C)cc(-c3nc4ccccc4n3C)cc2n1Cc1ccc(-c2ccccc2C(=O)O)cc1` ; test system: Broad substrate specificity ATP-binding cassette transporter ABCG2 (Homo sapiens). 4.77

All figures here come from ChEMBL document CHEMBL5126555.
